Recorded values, source patent EP4483954A1.

# Assayed System: TRB2(h) (Homo sapiens, UniProt Q92519)
# Sequence (Q92519 1-343): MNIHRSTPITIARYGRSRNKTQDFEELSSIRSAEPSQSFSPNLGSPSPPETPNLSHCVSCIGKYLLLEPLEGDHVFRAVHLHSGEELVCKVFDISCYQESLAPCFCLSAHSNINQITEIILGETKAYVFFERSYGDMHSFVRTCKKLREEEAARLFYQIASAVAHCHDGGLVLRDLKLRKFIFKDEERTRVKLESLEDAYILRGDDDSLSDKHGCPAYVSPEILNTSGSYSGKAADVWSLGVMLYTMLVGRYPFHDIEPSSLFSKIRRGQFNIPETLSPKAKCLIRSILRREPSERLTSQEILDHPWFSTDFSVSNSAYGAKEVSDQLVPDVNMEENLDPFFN
pIC50: −log10 of the molar value.
Measured Property: pIC50

Example entries and their recorded answers appear below.
Compound: Cn1nccc1-c1ccc2scc(-c3ccncc3)c2n1
pIC50: 5.52 to 6.30
--
Compound: Cn1cc(-c2ccc3scc(-c4ccncc4)c3n2)cn1
pIC50: 5.52 to 6.30
--
Compound: COc1cc(-c2ccn(C)n2)nc2c(-c3ccncc3)csc12
pIC50: 5.52 to 6.30
--
Compound: Cn1ccc(Nc2ccc3scc(-c4ccncc4)c3n2)n1
pIC50: 6.30 to 7.00
--
Compound: Cn1cc(-c2cc(Cl)c3scc(-c4ccncc4)c3n2)cn1
pIC50: 6.30 to 7.00

Returns the measured pIC50 for the input compound. Input: c1ccc(-c2csc3ccc(-c4ccoc4)nc23)cc1
5.00 to 5.52

Returns the measured pIC50 for the input compound. Input: Cn1cc(-c2ccc3scc(-c4cccnc4)c3n2)cn1
5.52 to 6.30

Returns the measured pIC50 for the input compound. Input: FC(F)(F)n1cc(-c2ccc3scc(-c4ccncc4)c3n2)cn1
5.00 to 5.52

Returns the measured pIC50 for the input compound. Input: Cc1cc(-c2cnn(C)c2)nc2c(-c3ccncc3)csc12
5.52 to 6.30

Returns the measured pIC50 for the input compound. Input: Cc1cc2scc(-c3ccncc3)c2nc1-c1ccn(C)n1
5.00 to 5.52

Returns the measured pIC50 for the input compound. Input: Cn1cc(-c2ccc3scc(-c4ccnc(CN)c4)c3n2)cn1
5.52 to 6.30

Returns the measured pIC50 for the input compound. Input: Cn1cc(-c2ccc3scc(-c4ccnc(C#N)c4)c3n2)cn1
6.30 to 7.00

Returns the measured pIC50 for the input compound. Input: Cn1cncc1-c1ccc2scc(-c3ccncc3)c2n1
5.52 to 6.30

Returns the measured pIC50 for the input compound. Input: Cn1cc(-c2ccc3scc(C(O)c4ccccc4)c3n2)cn1 (centres unmarked)
5.52 to 6.30
